Parameter 'readout' = Ki; parameter 'system' = Protease (Human immunodeficiency virus 1, UniProt Q9YQ12).
Sequence (Q9YQ12 whole entry): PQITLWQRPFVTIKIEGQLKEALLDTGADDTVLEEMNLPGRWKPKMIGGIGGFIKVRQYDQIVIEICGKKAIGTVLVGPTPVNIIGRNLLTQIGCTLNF
Quick reminder: number only, in µM, skip the unit.

Request: Requested field: Ki. Item: COc1ccc(S(=O)(=O)N(CC(C)C)C[C@@H](O)[C@H](Cc2ccccc2)Nc2c(N(C)[C@@H]3CCOC3)c(=O)c2=O)cc1
Response: 0.00051

Request: Try COc1ccc(S(=O)(=O)N(CC(C)C)C[C@@H](O)[C@H](Cc2ccccc2)Nc2c(N(C)[C@@H]3CO[C@@H]4OCC[C@@H]43)c(=O)c2=O)cc1 next.
Response: 0.201

Request: Try COCCOc1c(N[C@@H](Cc2ccccc2)[C@H](O)CN(CC(C)C)S(=O)(=O)c2ccc(OC)cc2)c(=O)c1=O next.
Response: 1.96

Request: Try COc1ccc(S(=O)(=O)N(CC(C)C)C[C@@H](O)[C@H](Cc2ccccc2)Nc2c(N[C@@H]3CO[C@@H]4OCC[C@@H]43)c(=O)c2=O)cc1 next.
Response: 0.0056

Request: Try COc1ccc(S(=O)(=O)N(CC(C)C)C[C@@H](O)[C@H](Cc2ccccc2)Nc2c(N[C@@H]3CCOC3)c(=O)c2=O)cc1 next.
Response: 0.2
